Data credit: paper PMC6433232

- Tested on: primary acute myeloid leukemia (AML) cells obtained from patients
- measurementDescription: Kinase inhibitor library screening with and without NSC130362, primary AML cells
- Assay type: cell-based, Human
- testSettings: ratio of EC50 for inhibitor to EC50 for inhibitor/NSC130362 combination; NSC130362 10 μM; Screen N 3
Recorded EC50 decrease, fold (Screen N 3) by entry
Include the unit after the number when you answer.

Would you please look over these solved cases?
1) Cc1cc(Nc2nc(N[C@@H](C)c3ncc(F)cn3)ncc2Cl)n[nH]1    0.365 fold
2) COc1ccc(C2=N[C@@H](c3ccc(Cl)cc3)[C@@H](c3ccc(Cl)cc3)N2C(=O)N2CCNC(=O)C2)c(OC(C)C)c1    0.9 fold

QUERY: Report EC50 decrease, fold (Screen N 3) for Clc1ccc(Nc2nnc(Cc3ccncc3)c3ccccc23)cc1 tested on primary acute myeloid leukemia (AML) cells obtained from patients.
RESULT: 0.7 fold

====

- targetDesc: human GAPDH enzyme (Homo sapiens, UniProt P04406)
- Construct: endogenous in cells; host or cells: MIA PaCa-2 cells
- Sequence (P04406 whole entry): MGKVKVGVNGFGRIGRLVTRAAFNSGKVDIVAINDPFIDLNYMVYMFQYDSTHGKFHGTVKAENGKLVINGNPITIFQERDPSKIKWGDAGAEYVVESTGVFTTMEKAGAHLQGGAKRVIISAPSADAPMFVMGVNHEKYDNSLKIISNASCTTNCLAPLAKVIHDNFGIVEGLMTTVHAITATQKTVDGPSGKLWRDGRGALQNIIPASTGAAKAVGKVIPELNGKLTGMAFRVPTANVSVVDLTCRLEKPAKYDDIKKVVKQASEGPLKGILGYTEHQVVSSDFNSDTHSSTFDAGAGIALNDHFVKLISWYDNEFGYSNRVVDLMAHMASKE
- measurementDescription: GAPDH activity assay in MIA PaCa-2 cells
- Format: cell-based
- testSettings: 2 h, read-out: GAPDH, enzyme residual activity as compared to DMSO-treated sample
observationType: remaining activity at 30 µM (%)
Unit % implied. Number only.

1. CCNC1=CC(=O)c2ncccc2C1=O    93
2. O=C1C(Cl)=C(NCCO)C(=O)c2ccccc21    89
3. CCCCCCCNC1=C(Cl)C(=O)c2ccccc2C1=O    100
4. COC1=C(N2CC2)C(=O)c2ccccc2C1=O    73

QUERY: API: value(readout= remaining activity at 30 µM, system= human GAPDH enzyme (Homo sapiens, UniProt P04406), query= CC1=C(N2CC2)C(=O)c2ccccc2C1=O )
RESULT: 100

QUERY: # query: remaining activity at 30 µM | item O=C1C=C(SCCO)C(=O)c2ccccc21 | system: human GAPDH enzyme (Homo sapiens, UniProt P04406)
RESULT: 88

QUERY: Give human GAPDH enzyme (Homo sapiens, UniProt P04406) remaining activity at 30 µM for COC1=C(N(C)C)C(=O)c2ccccc2C1=O
RESULT: 95
